Hey, just so you know, these numbers are from the supplement of paper PMC10307832.

Tested on: NCI-H1437
Assay Name: relative viability (nuclei count vs DMSO), 5 days (fraction); higher = more cells survive
Assay Conditions: first compound 0.04 µM
Measured Parameter: relative viability
Lab note: write the figure by itself, no unit.

Look over these answered cases.
- Compound: "C[C@@H]1CN(CC(=O)Nc2ccc3c(c2)Cc2cccc(-c4cc(=O)cc(N5CCOCC5)o4)c2S3)C[C@H](C)O1 + N=C(N)NC(=N)NCCc1ccccc1 [Phenformin] (partner 250 µM)"
  relative viability: 0.338
- Compound: "Clc1ccc(Nc2nnc(Cc3ccncc3)c3ccccc23)cc1 [Vatalanib] + COc1cc2c(Oc3ccc(NC(=O)C4(C(=O)Nc5ccc(F)cc5)CC4)cc3F)ccnc2cc1OCCCN1CCOCC1 [Foretinib] (partner 0.25 µM)"
  relative viability: 1.25
- Compound: "Clc1ccc(Nc2nnc(Cc3ccncc3)c3ccccc23)cc1 [Vatalanib] + CS(=O)(=O)N1CCN(Cc2cc3nc(-c4cccc5[nH]ncc45)nc(N4CCOCC4)c3s2)CC1 [Pictilisib] (partner 1 µM)"
  relative viability: 0.49
- Compound: "Clc1ccc(Nc2nnc(Cc3ccncc3)c3ccccc23)cc1 [Vatalanib] + COc1cccc2cc(-c3nc([C@H]4CC[C@H](C(=O)O)CC4)n4ncnc(N)c34)[nH]c12 [OSI-027] (partner 0.5 µM)"
  relative viability: 0.942

[in] Please report the measured relative viability for COc1cc(N2CCC(C(N)=O)CC2)ccc1Nc1nc(N)c(Cl)c(Nc2ccccc2S(=O)(=O)C(C)C)n1 [HG-5-88-01] + C[C@]1(O)C[C@@H](c2nc(-c3ccc4ccc(-c5ccccc5)nc4c3)c3c(N)nccn32)C1 [Linsitinib] (partner 1 µM)
[out] 1.04

[in] Provide only the value of recorded relative viability for C[C@@H]1CN(CC(=O)Nc2ccc3c(c2)Cc2cccc(-c4cc(=O)cc(N5CCOCC5)o4)c2S3)C[C@H](C)O1 + CC(=O)Nc1cccc(-n2c(=O)n(C3CC3)c(=O)c3c(Nc4ccc(I)cc4F)n(C)c(=O)c(C)c32)c1 [Trametinib] (partner 0.02 µM)
[out] 0.47

[in] Identify measured relative viability corresponding to Clc1ccc(Nc2nnc(Cc3ccncc3)c3ccccc23)cc1 [Vatalanib] + O=C(c1cc(Cc2n[nH]c(=O)c3ccccc23)ccc1F)N1CCN(C(=O)C2CC2)CC1 [Olaparib] (partner 8 µM)
[out] 0.67

[in] Identify relative viability associated with the compound Clc1ccc(Nc2nnc(Cc3ccncc3)c3ccccc23)cc1 [Vatalanib] + CC(=O)Nc1cccc(-n2c(=O)n(C3CC3)c(=O)c3c(Nc4ccc(I)cc4F)n(C)c(=O)c(C)c32)c1 [Trametinib] (partner 0.02 µM)
[out] 0.571

[in] Supply measured relative viability of C[C@@H]1CN(CC(=O)Nc2ccc3c(c2)Cc2cccc(-c4cc(=O)cc(N5CCOCC5)o4)c2S3)C[C@H](C)O1 + Cc1nc(Nc2ncc(C(=O)Nc3c(C)cccc3Cl)s2)cc(N2CCN(CCO)CC2)n1 [Dasatinib] (partner 0.075 µM) in your reply.
[out] 0.334
